The measurements presented in this section are drawn from paper PMC3817407.

Kindly state fold repression for each of the entries shown.
Biological target: T1, ECF16_3622
T1 chain: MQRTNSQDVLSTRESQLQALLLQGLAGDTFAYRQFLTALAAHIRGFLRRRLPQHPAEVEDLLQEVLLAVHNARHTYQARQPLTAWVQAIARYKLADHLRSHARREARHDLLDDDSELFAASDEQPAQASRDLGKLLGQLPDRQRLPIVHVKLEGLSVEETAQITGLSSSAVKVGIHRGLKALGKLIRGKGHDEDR
Form rule: numeric answer, no unit written next to it.

Inquiry: Give recorded fold repression. AS33_423 (protein) MMAMSNTMPDPREPGDVEALLPWYAAGTLNARDARRVADALDRDPALARQYAVILEEYASTIELNESLGAPSSRAMQKLFAAIDAEPARAPGAGQGLGARFAGFFAGLSPKALAWSASVAGLALLLQAGLIGALLTWPHAAPVQTAAYQPQREVARAPASSPAPATVSPPAAAMADRAADAGKSTPPMVMAERSGGPVVRSLAPQSGPRVLVKFAPEARASEIAALLDQYNAVVVDSSRGGLFRLQFGTQSLSKQDQETLIGRLQKEPVVSVVLSAP
Reply text: 35.1

Inquiry: Provide only the value of recorded fold repression for AS11_987 (protein) MNKHPDNNLLEAYASGSIDAVSGLVVATHLETCSKCRAYVNQVEASQANTVSESPSEYSPEFDDMLNDIINAEPVNDNVVIQDTAFVNVAGKSFELPKTLVRFSDLVGSWRSYGGKVFSAQIDLGEDARVSLMYIGENVQIPQHTHRGLESTLVLHGGFSDEDGQYEEGDLMVRDASVKHSPFTQEGEDCLCLTVLTEPMIFTQGVARIFNLFGKGLYP
Reply text: 5.11

Inquiry: Given AS25_1643_cl43 (protein) MTTDSNFNDPCRRQFSRDLPQKMARHTNEATGAMDMVKRDRFELLSAYLGGEVTAAERRQVEDWPANDVAVQRLYSRLLKLRQGIRTMPIPTAQQSPETTAEQVFAKVNRRSRLAWKLGGAAVAACVIGAVTNWLPGRQTGIPQLAQQPQEQPTQAVTTPDALPMIALNNPVIEIPKAAVASPTKFIQPQPQLGEIPPDIN , respond with its fold repression.
Reply text: 2.26
